The compounds below have reported MIC for Staphylococcus aureus Smith.

Guide cases for MIC, answers given:
- COMPOUND: "NC[C@@H]1CC[C@@H](N)[C@@H](O[C@H]2[C@H](O)[C@@H](O[C@H]3O[C@H](CO)[C@@H](O)[C@H](N)[C@H]3O)[C@H](N)C[C@@H]2N)O1 [DKB, 3',4'-dideoxykanamycin B, reference compound]"
  EXPERIMENTAL_TARGET: "Staphylococcus aureus Smith"
  MIC: "< 0.2 µg/mL"
- COMPOUND: "C[C@H]1O[C@H](O[C@@H]2[C@@H](O)[C@H](O[C@H]3O[C@H](CN)CC[C@H]3N)[C@@H](N)C[C@H]2NC(=O)[C@@H](O)CCN)[C@H](O)[C@@H](N)[C@@H]1O [AHB-6\"-DDKB]"
  EXPERIMENTAL_TARGET: "Staphylococcus aureus Smith"
  MIC: "< 0.2 µg/mL"
- COMPOUND: "C[C@@H]1C[C@H](N)[C@@H](O)[C@@H](O[C@@H]2[C@@H](O)[C@H](O[C@H]3O[C@H](CN)CC[C@H]3N)[C@@H](N)C[C@H]2NC(=O)[C@@H](O)CCN)O1 [AHB-4\",6\"-DDKB]"
  EXPERIMENTAL_TARGET: "Staphylococcus aureus Smith"
  MIC: "< 0.2 µg/mL"
- COMPOUND: "C[C@@H]1C[C@H](N)[C@@H](O)[C@@H](O[C@@H]2[C@@H](O)[C@H](O[C@H]3O[C@H](CN)CC[C@H]3N)[C@@H](N)C[C@H]2N)O1 [4\",6\"-DDKB, 4\",6\"-dideoxydibekacin]"
  EXPERIMENTAL_TARGET: "Staphylococcus aureus Smith"
  MIC: "< 0.2 µg/mL"

Hey, Staphylococcus aureus Smith data for C[C@H]1O[C@H](O[C@@H]2[C@@H](O)[C@H](O[C@H]3O[C@H](CN)CC[C@H]3N)[C@@H](N)C[C@H]2N)[C@H](O)[C@@H](N)[C@@H]1O [6"-DDKB, 6"-deoxydibekacin] : MIC came out at < 0.2 µg/mL
